- Tested on: HeLa cells
- MEASUREMENT CONDITIONS: cells pretreated with antioxidant 3 hours, washed, post-treated with 100 μM Au1.4MS 48 hours; NAC 3 mM, others 1 mM
Listing of recorded cell survival by entry.
Please reply with the bare figure in % and do not write the unit itself.

Solved cases below.
MOLECULE | TARGET OR TEST SYSTEM | cell survival / %
CC(=O)N[C@@H](CS)C(=O)O [NAC, N-acetylcysteine] | HeLa cells | 7
O=C1O[C@H]([C@@H](O)CO)C(O)=C1O [ascorbic acid] | HeLa cells | 6
O=S(=O)([O-])c1cccc(P(c2ccccc2)c2ccccc2)c1.[Na+] [TPPMS, triphenylphosphine monosulfonate] | HeLa cells | 11

Now, please, on to the next molecule.
Quick check: cell survival on HeLa cells, item N[C@@H](CCC(=O)N[C@@H](CS)C(=O)NCC(=O)O)C(=O)O [GSH, glutathione] ?
15

Hello, the source for this data is patent US20110300532A1, in case you need it.
